Biological target: Cytochrome P450 2C9 (Homo sapiens) (UniProt P11712)
Sequence (P11712 whole entry, looked up): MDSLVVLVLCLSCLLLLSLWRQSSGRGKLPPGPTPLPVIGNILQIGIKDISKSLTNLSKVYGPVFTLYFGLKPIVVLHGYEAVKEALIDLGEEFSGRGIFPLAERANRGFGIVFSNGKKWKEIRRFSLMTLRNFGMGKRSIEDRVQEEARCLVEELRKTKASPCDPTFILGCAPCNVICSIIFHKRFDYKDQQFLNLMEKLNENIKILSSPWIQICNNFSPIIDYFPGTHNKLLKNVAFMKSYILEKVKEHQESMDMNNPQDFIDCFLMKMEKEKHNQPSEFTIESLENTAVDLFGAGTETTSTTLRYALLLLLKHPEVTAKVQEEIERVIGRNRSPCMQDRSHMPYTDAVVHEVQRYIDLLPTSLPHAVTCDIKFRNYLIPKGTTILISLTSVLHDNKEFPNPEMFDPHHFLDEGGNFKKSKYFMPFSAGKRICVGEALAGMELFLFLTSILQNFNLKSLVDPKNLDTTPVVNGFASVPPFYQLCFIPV
Test: Cytochrome P450 family 2 subfamily C member 9 (CYP2C9) small molecule antagonists: luciferase biochemical (cell-free) qHTS assay (AID 1645842); also: nearly all actives have a fitted effect of over 55% in size
Conditions: P450-Glo CYP2C9 enzyme assay, luciferin luminescence; series mostly up to 57.4 µM
Results filed as inconclusive are left out. Active and inactive are the calls of the source. Calls follow the shape of the dose curve; as a rule, active = well fitted inhibition curve with a large enough effect in the repeat runs; inconclusive = weak or mixed curves; inactive = no such curve, though single readings can be large or run the other way.
Choose the fitting class; nothing outside active, inactive is accepted.

COC(=O)N1CCC(n2ncc3c(N4CCOCC4)nc(-c4ccc(NC(=O)Nc5ccc(CO)cc5)cc4)nc32)CC1
active
COc1ccccc1Oc1ccc(N(Cc2cccnc2)S(=O)(=O)CC(F)(F)F)cc1
active
CC(=O)N1CCN(Cc2ccc([C@H](C)Nc3nccc(N4C(=O)OC[C@@H]4C(C)C)n3)cc2)CC1
active
Cn1cc(-c2ccc3nnc(Sc4ccc5nn(C)cc5c4)n3n2)cn1
active
COc1ccc(-c2cnc3ccc(NCc4ccc(S(N)(=O)=O)cc4)nn23)cc1OC
active

Now let's try a different one.
// query Fill in: this test's call for CC1COC(Nc2ccc3ncnc(Nc4ccc(OCc5nccs5)c(Cl)c4)c3c2)=N1 (stereo not given) is ___
// result active

###

Test system: CRL-7250
Assay: Cytotoxic Profiling of Annotated Libraries Using Quantitative High-Throughput Screening (AID 1296008); also: nearly all actives have a fitted effect of over 60% in size
Conditions: Five cell lines viability, CellTiter-Glo ATP luminescence, 48-72 h
Records with an inconclusive call do not appear. The source made the active and inactive calls. Calls follow the shape of the dose curve; as a rule, active = well fitted inhibition curve with a large enough effect; inconclusive = small, poorly fitted or top-dose-only effect; inactive = flat fitted curve, though single readings scatter.
// one of class 1 = active, class 0 = inactive, no free text

Take a look at these entries with their results.
C[C@@H]1CC[C@]2(C(=O)OC3OC(CO)C(O)C(O)C3O)CC[C@]3(C)C(=CCC4[C@@]5(C)CC[C@H](O)[C@](C)(C(=O)O)C5CC[C@]43C)C2[C@]1(C)O (some centres undefined)
class 0
OC[C@H]1O[C@@H](O[C@H]2[C@H](OCCc3ccccc3)O[C@H](CO)[C@@H](O)[C@@H]2O)[C@H](O)[C@@H](O)[C@@H]1O
class 0

Turning now to a further record.
// query Name the outcome recorded for C[C@@H]1CC[C@]2(C(=O)O[C@@H]3O[C@H](CO)[C@@H](O)[C@H](O)[C@H]3O)CC[C@]3(C)C(=CCC4[C@@]5(C)C[C@@H](O)[C@H](O)[C@](C)(C(=O)O)C5CC[C@]43C)[C@@H]2[C@]1(C)O (some centres undefined) in the assay.
// result class 0

###

Biological target: Cytochrome P450 2D6 (Homo sapiens) (UniProt P10635)
Sequence (P10635 whole entry, looked up): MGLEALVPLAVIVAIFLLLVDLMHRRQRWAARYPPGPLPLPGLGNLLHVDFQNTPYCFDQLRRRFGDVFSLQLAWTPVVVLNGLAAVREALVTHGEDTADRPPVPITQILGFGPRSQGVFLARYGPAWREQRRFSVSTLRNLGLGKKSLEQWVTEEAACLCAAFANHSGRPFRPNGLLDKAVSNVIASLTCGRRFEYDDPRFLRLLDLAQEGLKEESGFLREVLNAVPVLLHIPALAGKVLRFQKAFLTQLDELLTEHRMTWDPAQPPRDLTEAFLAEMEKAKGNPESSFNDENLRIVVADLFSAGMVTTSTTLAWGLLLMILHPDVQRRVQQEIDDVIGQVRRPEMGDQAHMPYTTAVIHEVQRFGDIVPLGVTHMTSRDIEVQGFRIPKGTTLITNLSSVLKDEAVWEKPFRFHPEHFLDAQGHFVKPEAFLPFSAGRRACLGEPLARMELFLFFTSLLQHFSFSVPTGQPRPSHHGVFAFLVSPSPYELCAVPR
Assay: Cytochrome P450 family 2 subfamily D member 6 (CYP2D6) small molecule antagonists: luciferase biochemical (cell-free) qHTS assay (AID 1645840); also: nearly all actives have a fitted effect of over 55% in size
Settings: P450-Glo CYP2D6 enzyme, luciferin luminescence, 1 h; series mostly up to 57.4 µM
Inconclusive results are not listed. Active and inactive are the calls of the source. Calls follow the shape of the dose curve; as a rule, active = well fitted inhibition curve with a large enough effect in the repeat runs; inconclusive = weak or mixed curves; inactive = flat fitted curve, though single readings scatter.
Tick one outcome: active, inactive

Field: example entries. Status: answers known.
O=C(O)[C@@H]1C[C@H]2C[C@@H](CCc3nn[nH]n3)CC[C@H]2CN1
inactive
O=C(NCc1ccccn1)Nc1nnc(-c2ccco2)o1
inactive
Nc1ccccc1N
active

// query Given c1ccc(N2CCN(CCc3nn[nH]n3)CC2)cc1 , state the outcome it received in this test.
// result inactive

// query // repeat for Cn1nnc(-c2ccc(-c3ccc(N4C[C@H](CO)OC4=O)cc3F)cn2)n1 and report
// result inactive

// query Here is the next molecule: Nc1nc(Nc2ccc(S(N)(=O)=O)cc2)n(C(=S)Nc2c(F)cccc2F)n1
// result active

// query Entry to check: COC(=O)CCSCc1ccc(-c2onc(C)c2NC(=O)OC(C)c2ccccc2Cl)cc1 (stereo unspecified)
// result active

// query Entry CC(C)(C)Nc1nc2cc(Cl)c(Cl)cc2nc1S(C)(=O)=O please
// result active

// query Follow-up item: Cc1onc(C(=O)N2CCN(C(c3ccc(Cl)cc3)c3ccc(Cl)cc3)CC2)c1[N+](=O)[O-]
// result inactive

// query What do we get for O=C(Nc1ccc(S(=O)(=O)C(F)(F)F)cc1)C1=CCN(c2ncccc2C(F)(F)F)CC1 ?
// result active

// query Now try Cc1ccc(N)cc1O .
// result active

###

Test system: PA-1
Experiment: Primary qHTS to identify gynecologic anti-cancer compounds using libraries of approved drugs and bioactive compounds (AID 1345084); also: nearly all actives have a fitted effect of over 55% in size
Settings: Gynecologic cancer cell panel viability, ATPlite luminescence, 48 h; series mostly up to 57.5 µM
Description: National Center for Advancing Translational Sciences [NCATS] Assay Overview: Chemotherapeutic drug responses vary from cancer to cancer and from patient to patient. […] ATPlite is a luminescence based assay reliant on the conversion of a luciferase substrate to light in the presence of ATP. As a cytotoxic compound will suppress growth and decrease the number of cells, the concentration of ATP will decrease, and less light signal will be detected in the well. […]
Records with an inconclusive call do not appear. The source made the active and inactive calls. The call rests on the fitted dose curve; in most records, active means well fitted cell-killing curve with a large enough effect; inconclusive means small, poorly fitted or top-dose-only effect, or effect the other way; inactive means flat fitted curve, though single readings scatter.
API: response.call in active, inactive

A selection of reference data follows.
O=[N+]([O-])c1cn2c(n1)OCC(OCc1ccc(OC(F)(F)F)cc1)C2 (stereo not drawn)
inactive
CC1=CC(=O)CC(C)(CO)C1(O)/C=C/C(C)O[C@@H]1O[C@H](CO)[C@@H](O)[C@H](O)[C@H]1O (stereo partly drawn)
inactive
CC(C)c1nc(-c2ccc(NC(=O)Nc3cccc(C(F)(F)F)c3)c3ccccc23)c2c(N)nccn12
active
CC1=CC2/C=C(\C)CC[C@@H](O)[C@@H](O)[C@@H]3O[C@@H]3C(=O)[C@]23C(=O)N[C@@H](CC(C)C)[C@@H]3[C@@H]1C (stereo partly drawn)
inactive
CCN(CC)Cc1ccc(C(=O)N(CCc2ccccc2OC)[C@@H]2CCNC2)cc1
inactive
C=CC1(C)C=C2CCC3C(C)(C)C(O[C@@H]4O[C@@H](CO)[C@H](O)[C@H]4O)CCC3(C)C2CC1O[C@@H]1O[C@H](C)[C@H](O)[C@H](O)[C@H]1O (stereo partly drawn)
inactive
CC(=O)c1c(O)cc(O[C@@H]2O[C@H](CO)[C@@H](O)[C@H](O)[C@H]2O)cc1O
inactive

Now consider a different compound.
// query Which outcome was assigned to O=C(/C=C/c1cccc(S(=O)(=O)Nc2ccccc2)c1)NO in this test?
// result active

###

Test: Primary fluorescence-based thiol-reactive (MSTI) qHTS assay for identification of artifact compounds. (AID 1845221); also: nearly all actives have a fitted effect of over 65% in size
Details: MSTI thiol-reactivity probe, 1 h; series mostly up to 53.8 µM
Records with an inconclusive call do not appear. Calls of active or inactive are those of the source. Calls come from the whole dose curve; as a rule, active = well fitted inhibition curve with a large enough effect; inconclusive = small, poorly fitted or top-dose-only effect; inactive = no such curve, though single readings can be large or run the other way.
The reply should be one of these categories: YES (active), NO (inactive)

Answered cases to consult:
COc1ccc(CNC(=O)c2cc(-c3cncc(C)c3)ncc2-c2nccs2)nc1OC
NO
CC[C@]1(O)CC2CN(CCc3c([nH]c4ccccc34)[C@@](C(=O)OC)(c3cc4c(cc3OC)N(C)[C@H]3[C@@](O)(C(=O)OC)[C@H](OC(C)=O)[C@]5(CC)C=CCN6CC[C@]43[C@@H]65)C2)C1 (stereo partly specified)
NO
COc1c(C)c(OCC(O)C(C)(C)O)cc2c1COC2=O (stereo unspecified)
NO
CC1CCC2C(C)(C)[C@@H](O)CC[C@]2(C)C12Cc1c(O)cc3c(c1O2)CN(C(CCC(=O)O)C(=O)O)C3=O (stereo partly specified)
NO
CC(=O)OC1CC2C3(C)CCC(OC(=O)CC(=O)O)C(C)(C)C3CCC2(C)C2(C)CCC(C3(C)CCC(=O)O3)C12 (stereo unspecified)
NO
COc1ccc(C(=O)n2c(C)c(Cc3cccc(O[C@@H](C)C(=O)O)c3)c3cc(OC(F)(F)F)ccc32)cc1
NO
Cn1nnc(-c2ccc(-c3ccc(N4C[C@H](COP(=O)(O)O)OC4=O)cc3F)cn2)n1
NO
CC1CCC23COC(=O)C2=CC(O)CC3C1(C)CCC1=CC(O)OC1=O (stereo unspecified)
YES
CCc1c(-c2ccccc2)c(-c2ccccc2)nn1-c1ccccc1-c1cccc(OCC(=O)O)c1
NO
CC[C@]12C=CCN3CC[C@@]4(c5cc([C@@]6(C(=O)OC)C[C@H]7C[C@@H](C(C)(F)F)CN(Cc8c6[nH]c6ccccc86)C7)c(OC)cc5N(C)[C@H]4[C@@](O)(C(=O)OC)[C@@H]1OC(C)=O)[C@@H]32
NO

// query Write down the call the test reported for this compound. Item: CC1=C(C)C(=O)OC(C(C)C2CCC3C4CC=C5CC(OC6OC(COC7OC(CO)C(O)C(O)C7O)C(O)C(O)C6O)CC(O)C5(C)C4CCC23C)C1 (stereo unspecified)
// result NO

// query Try the compound CN(C)C/C=C/C(=O)Nc1cccc(C(=O)Nc2cccc(Nc3ncc(Cl)c(-c4c[nH]c5ccccc45)n3)c2)c1
// result NO

// query Please do the same for CCOc1ccc2nc(SCCN3CCOCC3)[nH]c2c1 as well.
// result NO

// query Next compound: COc1cc(O)c([C@@H](CC(=O)N2CC(C)CC(C)C2)c2ccc3c(c2)OCO3)c(OC)c1 (stereo partly specified)
// result NO

// query Moving on to COC(=O)C1=CO[C@@H](O[C@@H]2O[C@H](CO)[C@@H](O)[C@H](O)[C@H]2O)[C@H]2[C@@H]1CC(OC)O[C@@H]2C (stereo partly specified)
// result YES

// query Continue with CC(C)N(CCCCOCC(=O)NS(C)(=O)=O)c1cnc(-c2ccccc2)c(-c2ccccc2)n1
// result NO
